# experiment: COV-362 Cancer Cell Toxicity qHTS against the NCATS CANVASS Library (AID 1347352)
# test-parameters: COV-362 viability, CellTiter-Glo luminescence, 72 h; series mostly up to 38.3 µM
Records with an inconclusive call do not appear. Calls of active or inactive are those of the source. The call rests on the fitted dose curve; in most records, active means well fitted cell-killing curve with a large enough effect; inconclusive means small, poorly fitted or top-dose-only effect; inactive means flat fitted curve, though single readings scatter.
Entry note: the call must match one of 1 (yes) for active, 0 (no) for inactive

INSERT INTO measurements (compound, assigned_category) VALUES
  ('CC(=O)O[C@H]1c2ccccc2-c2c3c(cc4c2[C@@H]1N(C(C)=O)CC4)OCO3', '0 (no)'),
  ('C[C@H](CCC(O)C(C)(O)CO)[C@@]1(O)CC[C@@]2(C)C3=C(CC[C@@]21C)[C@@]1(C)CCC(OC(=O)CCC(=O)O)C(C)(C)[C@@H]1CC3 (some centres not stated)', '0 (no)');

What call does the record list for CCC(=O)N[C@@H](C[C@H](C)C(Cl)(Cl)Cl)C(=O)N1C(=O)C=C(OC)[C@@H]1CC(C)C ? 0 (no)

====

# target-desc: M-phase phosphoprotein 8 (Homo sapiens) (UniProt Q99549)
# Sequence (Q99549 whole entry, looked up): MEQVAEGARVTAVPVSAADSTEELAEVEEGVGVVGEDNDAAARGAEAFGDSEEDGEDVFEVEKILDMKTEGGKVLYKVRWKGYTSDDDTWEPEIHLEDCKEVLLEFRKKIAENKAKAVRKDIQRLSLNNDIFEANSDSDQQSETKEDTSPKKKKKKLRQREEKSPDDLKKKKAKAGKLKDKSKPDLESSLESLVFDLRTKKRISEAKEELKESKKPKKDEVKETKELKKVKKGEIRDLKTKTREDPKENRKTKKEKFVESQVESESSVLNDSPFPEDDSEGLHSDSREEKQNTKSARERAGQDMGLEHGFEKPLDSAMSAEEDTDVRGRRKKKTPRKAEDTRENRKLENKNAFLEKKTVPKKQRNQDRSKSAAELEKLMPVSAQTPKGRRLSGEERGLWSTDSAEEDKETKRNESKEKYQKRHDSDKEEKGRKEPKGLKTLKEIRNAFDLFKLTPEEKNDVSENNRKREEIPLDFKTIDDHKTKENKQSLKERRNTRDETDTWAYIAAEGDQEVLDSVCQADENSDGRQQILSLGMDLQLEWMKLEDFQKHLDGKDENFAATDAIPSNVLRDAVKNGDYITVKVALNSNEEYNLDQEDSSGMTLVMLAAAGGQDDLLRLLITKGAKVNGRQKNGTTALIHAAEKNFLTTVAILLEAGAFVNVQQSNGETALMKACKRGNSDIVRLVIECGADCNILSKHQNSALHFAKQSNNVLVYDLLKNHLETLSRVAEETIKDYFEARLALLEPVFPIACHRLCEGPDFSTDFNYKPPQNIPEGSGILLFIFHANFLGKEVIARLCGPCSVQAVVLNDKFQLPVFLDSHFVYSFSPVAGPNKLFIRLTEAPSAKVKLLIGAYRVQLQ
# experiment: qHTS Validation Assay for Inhibitors for MPP8 Chromodomain Interactions with Methylated Histone Tails (AID 488949);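 further: 50 nM MPP8 with 50 nM peptide preformed then compounds added for 30 min; AlphaScreen signal from MPP8 chromodomain bound to biotinylated H3K9me3 peptide; top concentration of the series differs between compounds; nearly all actives have a fitted effect of over 55% in size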
# test-parameters: AlphaScreen MPP8 binding to H3K9me3 peptide; series mostly up to 114 µM
Results filed as inconclusive are left out. The source made the active and inactive calls. The call rests on the fitted dose curve; in most records, active means well fitted inhibition curve with a large enough effect; inconclusive means small, poorly fitted or top-dose-only effect; inactive means no such curve, though single readings can be large or run the other way.
Entry note: the call must match one of active, inactive

Would you please look over these solved cases?
INSERT INTO results (compound, assigned_category) VALUES
  ('O=C(Cc1ccc(Cl)c(Cl)c1)OCCN1CCCC1', 'inactive'),
  ('CCCCC#Cc1nc(N)c2ncn([C@@H]3O[C@H](C(=O)NCC)[C@@H](O)[C@H]3O)c2n1', 'inactive'),
  ('CN1C(=O)CCC1c1cccnc1 (stereo unspecified)', 'inactive'),
  ('COc1cc(=O)n(C)c2c(OCC(O)C(C)(C)O)cccc12 (stereo unspecified)', 'inactive'),
  ('Cc1cn([C@H]2C[C@@H](N=[N+]=[N-])[C@@H](CO)O2)c(=O)[nH]c1=O', 'inactive');

Read the next record carefully.
What call does the record list for NCCC(=O)NCCc1cnc[nH]1 ? inactive

====

# experiment: qHTS for H2AX Agonists against the NCATS CANVASS Library (AID 1347378);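 further: phospho-H2AX S139 level in CHO-K1 lysates by TR-FRET emission ratio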; on activation: 0% is about no effect
# test-parameters: CHO-K1 H2AX phosphorylation, HTRF TR-FRET, 3 h; series mostly up to 76.9 µM
Records with an inconclusive call do not appear. Calls of active or inactive are those of the source. The call rests on the fitted dose curve; in most records, active means well fitted activation curve with a large enough effect; inconclusive means small, poorly fitted or top-dose-only effect; inactive means flat fitted curve, though single readings scatter.
Entry note: the call must match one of TRUE for active, FALSE for inactive

Would you please look over these solved cases?
INSERT INTO measurements (compound, assigned_category) VALUES
  ('COc1ccc2[nH]c3c(c2c1)CCN1C[C@H]2C[C@@H](OC(=O)c4cc(OC)c(OC)c(OC)c4)[C@H](OC)[C@@H](OC)[C@H]2C[C@H]31', 'FALSE'),
  ('C=CC(C)(C)C(=O)[C@@H](C)[C@@H]1CC[C@@](C)(C=C)O1', 'FALSE'),
  ('C[C@]12CCC[C@](C)(C(=O)O)[C@@H]1CC[C@@]1(C)c3cocc3CC[C@H]21', 'FALSE'),
  ('CC(C)=CCCC(C)(O)[C@H]1CC=C(C)C(O)C1 (some centres undefined)', 'FALSE'),
  ('CC(C)=CC[C@H]1C[C@@]2(CC=C(C)C)C(=O)[C@](CC=C(C)C)(C(=O)C(C(=O)c3ccccc3)=C2O)C1(C)C', 'FALSE');

What call does the record list for C=C(Cl)[C@](Cl)(CBr)CC[C@@H](Br)C(C)(C)Cl ? TRUE

What call does the record list for C=C[C@]1(C)CC[C@@H]([C@H](C)C(=O)CC=C(C)C)O1 ? FALSE

What call does the record list for COc1cc2ccc(=O)oc2c(O)c1O[C@@H]1O[C@H](CO)[C@@H](O)[C@H](O)[C@H]1O ? FALSE

What call does the record list for COc1ccc([C@@H]2c3cc4c(cc3C(=O)C(C)C2C)OCO4)cc1OC (some centres undefined) ? FALSE

====

# experiment: UWB1.289 Cancer Cell Toxicity qHTS against the NCATS CANVASS Library (AID 1347347); further: nearly all actives have a fitted effect of over 60% in size
# test-parameters: UWB1.289 viability, CellTiter-Glo luminescence, 72 h; series mostly up to 38.3 µM
Inconclusive results are not listed. Active and inactive are the calls of the source. The call rests on the fitted dose curve; in most records, active means well fitted cell-killing curve with a large enough effect; inconclusive means small, poorly fitted or top-dose-only effect; inactive means flat fitted curve, though single readings scatter.
Entry note: the call must match one of active, inactive

Would you please look over these solved cases?
INSERT INTO measurements (compound, assigned_category) VALUES
  ('C/C(=C\[C@H](C)C(=O)C[C@H](O)CC1CC(=O)NC(=O)C1)[C@@H]1OC(=O)CCCC/C=C/[C@@H](O)C[C@@H]1C', 'active'),
  ('C/C(=C\[C@H](C)C(=O)/C=C/CC1CC(=O)NC(=O)C1)[C@@H]1OC(=O)/C=C/CC/C=C/C[C@@H](O)[C@@H]1C', 'active');

What call does the record list for C=C1C(=O)O[C@H]2[C@H]1CCC(C)=C1CC[C@@](C)(O)[C@@H]12 ? active

What call does the record list for C[C@H]1C=C[C@H]2CCCC[C@@H]2[C@H]1C(=O)[C@H]1CC2=C(C(=O)O)CCN2C1=O ? inactive

What call does the record list for CC(=O)c1c(C)cc2c(c1O)C(=O)c1c(O)cc(O)cc1C2=O ? inactive

What call does the record list for CC1(C)CC[C@]2(CO)CC[C@]3(C)C(=CCC4[C@@]5(C)CC[C@H](O)C(C)(C)C5CC[C@]43C)C2C1 (stereo partly specified) ? inactive

What call does the record list for [C-]#[N+][C@@]12C(=O)[C@@H]3[C@@H](O[C@@]4(C(=O)N(C)c5cccc1c54)C3(C)C)C(=O)[C@@]2(C)C=C ? inactive

What call does the record list for COc1cc2oc3ccccc3c(=O)c2cc1OC ? inactive

What call does the record list for COC(=O)[C@@]1(C)CCC[C@]2(C)c3cc(OC)ccc3CC[C@@H]12 ? inactive

====

# target-desc: DNA repair nuclease/redox regulator APEX1 (Homo sapiens)
# experiment: qHTS Validation Assay for Inhibitors of the Human Apurinic/apyrimidinic Endonuclease 1 (APE1) (AID 1705;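 further: TAMRA fluorescence gain over two minutes as APE1 cuts a quenched THF abasic duplex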)
# test-parameters: purified APE1 endonuclease activity, fluorescence, titration; series mostly up to 57.1 µM
Records with an inconclusive call do not appear. Calls of active or inactive are those of the source. The call rests on the fitted dose curve; in most records, active means well fitted inhibition curve with a large enough effect; inconclusive means small, poorly fitted or top-dose-only effect; inactive means flat fitted curve, though single readings scatter.
reported-property: outcome

For orientation, consider the following solved cases.
INSERT INTO results (compound, target_desc, reported_property, reported_measurement) VALUES
  ('CN=C(N)NCCCC(N)C(=O)O (stereo not given)', 'DNA repair nuclease/redox regulator APEX1 (Homo sapiens)', 'outcome', 'inactive'),
  ('COC(=O)c1c(-c2cc(OC)c(OC)c(OC)c2)c2ccc(OCc3ccccn3)cc2c(=O)n1-c1ccc(N)cc1', 'DNA repair nuclease/redox regulator APEX1 (Homo sapiens)', 'outcome', 'inactive'),
  ('CN1C(=O)CCC1c1cccnc1 (stereo not given)', 'DNA repair nuclease/redox regulator APEX1 (Homo sapiens)', 'outcome', 'inactive'),
  ('CNC(=O)[C@H]1O[C@@H](n2cnc3c(NCc4cccc(I)c4)ncnc32)[C@H](O)[C@H]1O', 'DNA repair nuclease/redox regulator APEX1 (Homo sapiens)', 'outcome', 'inactive');

Consider the compound CCCCC#Cc1nc(N)c2ncn([C@@H]3O[C@H](C(=O)NCC)[C@@H](O)[C@H]3O)c2n1 and give its measured outcome. inactive

====

# experiment: qHTS to identify inhibitors of the type 1 interferon - major histocompatibility complex class I in skeletal muscle: primary screen against the NCATS Mechanism Interrogation Plate v5.0 (MIPE) Libary (AID 1347411); further: nearly all actives have a fitted effect of over 65% in size
# test-parameters: iHSKM cells + IFN-b, HiBiT-tagged MHC-I luminescence, 24 h; series mostly up to 45.8 µM
Inconclusive results are not listed. The source made the active and inactive calls. Calls come from the whole dose curve; as a rule, active = well fitted inhibition curve with a large enough effect; inconclusive = small, poorly fitted or top-dose-only effect; inactive = no such curve, though single readings can be large or run the other way.
Entry note: the call must match one of active, inactive

Would you please look over these solved cases?
INSERT INTO assay_data (compound, assigned_category) VALUES
  ('O=C(NO)c1ccc(C2=Nc3ccccc3Oc3ccccc32)cc1', 'active'),
  ('CC(C)(O)[C@H]1CC[C@@](C)([C@H]2[C@@H](O)C[C@@]3(C)[C@@H]4C[C@H](O[C@@H]5O[C@H](CO)[C@@H](O)[C@H](O)[C@H]5O)[C@H]5C(C)(C)[C@@H](O[C@@H]6OC[C@@H](O)[C@H](O)[C@H]6O)CC[C@@]56C[C@@]46CC[C@]23C)O1', 'inactive'),
  ('Nc1ncc(C(=O)NC2CN(C(=O)C3CC3)C2)c2ccc(-c3cccc(F)c3)nc12', 'inactive'),
  ('Cn1cc(/C=C2\C(=O)Nc3cccnc32)c2ccccc21', 'active'),
  ('O=C(Nc1cccc(C(F)(F)F)c1)c1cccc2cc(Oc3cc(CO)ncn3)ccc12', 'inactive');

What call does the record list for CCC1CCCCN1C(=O)n1ncc(C(O)(c2ccccc2)c2ccccc2)n1 (stereo not drawn) ? inactive

What call does the record list for CN(Cc1ccccc1)C(=O)c1ccc(S(=O)(=O)Nc2ccccc2)cc1 ? inactive

What call does the record list for CN1[C@@H]2CCC[C@H]1CC(NC(=O)c1nn(C)c3ccccc13)C2 (stereo partly drawn) ? inactive
